Biological target: Mcl-1 protein (UniProtKB primary accession number: Q07820) (Homo sapiens, UniProt Q07820)
Sequence (Q07820 whole entry): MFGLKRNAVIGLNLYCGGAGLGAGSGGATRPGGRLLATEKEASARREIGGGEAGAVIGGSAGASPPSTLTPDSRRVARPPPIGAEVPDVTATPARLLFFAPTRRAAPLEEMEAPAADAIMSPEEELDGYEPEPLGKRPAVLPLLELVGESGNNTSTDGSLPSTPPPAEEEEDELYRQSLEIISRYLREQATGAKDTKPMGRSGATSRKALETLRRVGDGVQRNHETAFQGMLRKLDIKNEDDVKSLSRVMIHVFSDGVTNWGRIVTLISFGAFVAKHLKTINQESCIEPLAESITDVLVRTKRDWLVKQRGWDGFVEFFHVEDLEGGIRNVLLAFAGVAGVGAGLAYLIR
Assay: Inhibition of Mcl-1 by fluorescence polarisation, Method 1
Assay type: binding
Settings: fluorescence polarisation; Method 1, or Method 2; read-out: IC50 (M) Mcl-1 FP
For each entry below, report its log10 IC50 value.
Could you please treat all values as log10 of IC50 in M?

Req: Find log10 IC50 (Mcl-1 protein (UniProtKB primary accession number: Q07820) (Homo sapiens, UniProt Q07820)) for the entry Cc1c(-c2c(Br)sc3ncnc(OC(Cc4ccccc4)C(=O)O)c23)ccc(OCCN2CCN(C)CC2)c1Cl (stereo not drawn) [Example 518]
Resp: -7.46

Req: Find log10 IC50 (Mcl-1 protein (UniProtKB primary accession number: Q07820) (Homo sapiens, UniProt Q07820)) for the entry COc1nccc(COc2ccccc2CC(Oc2ncnc3sc(-c4cccc(F)c4F)c(-c4ccc(OCCN5CCN(C)CC5)c(Cl)c4C)c23)C(=O)O)n1 (stereo not drawn) [Example 703]
Resp: -8.03

Req: Find log10 IC50 (Mcl-1 protein (UniProtKB primary accession number: Q07820) (Homo sapiens, UniProt Q07820)) for the entry CCc1sc2ncnc(OC(Cc3ccccc3)C(=O)O)c2c1-c1ccc(OCCN2CCC(O)CC2)c(Cl)c1C (stereo not drawn) [Example 413]
Resp: -7.89

Req: Find log10 IC50 (Mcl-1 protein (UniProtKB primary accession number: Q07820) (Homo sapiens, UniProt Q07820)) for the entry Cc1ccc(-c2sc3ncnc(O[C@H](Cc4ccccc4)C(=O)O)c3c2-c2ccc(OCCN3CCN(C)CC3)c(Cl)c2C)s1 [Example 500]
Resp: -7.10

Req: Find log10 IC50 (Mcl-1 protein (UniProtKB primary accession number: Q07820) (Homo sapiens, UniProt Q07820)) for the entry Cc1c(-c2c(-c3ccc(OCc4ccn(C)n4)cc3)sc3ncnc(OC(Cc4ccccc4OCC(F)(F)F)C(=O)O)c23)ccc(OCCN2CCN(C)CC2)c1Cl (stereo not drawn) [Example 780]
Resp: -8.14

Req: Find log10 IC50 (Mcl-1 protein (UniProtKB primary accession number: Q07820) (Homo sapiens, UniProt Q07820)) for the entry Cc1c(-c2c(-c3cnn(C)c3)sc3ncnc(OC(Cc4ccccc4)C(=O)O)c23)ccc(OCCN2CCOCC2)c1Cl (stereo not drawn) [Example 712]
Resp: -6.39

----------
Target: Mcl-1 protein (UniProtKB primary accession number: Q07820) (Homo sapiens, UniProt Q07820)
Assay: Inhibition of Mcl-1 by fluorescence polarisation, Method 1
Assay type: binding
Conditions: fluorescence polarisation; Method 1, or Method 2; read-out: IC50 (M) Mcl-1 FP
measure: IC50 (M)
Write the number in M without appending the unit.

Req: So what does the record say about IC50 for COc1ccc(-c2nccc(COc3ccccc3CC(Oc3ncnc4sc(-c5ccc(F)cc5)c(-c5ccc(OCCN6CCN(C)CC6)c(Cl)c5C)c34)C(=O)O)n2)c(OC)c1 (stereo not drawn) ?
Resp: 9.48e-10

Req: So what does the record say about IC50 for CCc1sc2ncnc(OC(Cc3ccccc3)C(=O)O)c2c1-c1ccc(OCCCS(C)(=O)=O)c(Cl)c1C (stereo not drawn) ?
Resp: 3.5e-08

Req: So what does the record say about IC50 for COc1ccccc1-c1nccc(COc2ccccc2CC(Oc2ncnc3sc(-c4ccc(OCc5ccsc5)cc4)c(-c4ccc(OCCN5CCN(C)CC5)c(Cl)c4C)c23)C(=O)O)n1 (stereo not drawn) ?
Resp: 1.09e-09

Req: So what does the record say about IC50 for Cc1cc(-c2nccc(COc3ccccc3CC(Oc3ncnc4sc(-c5ccc(F)cc5)c(-c5ccc(OCCN6CCN(C)CC6)c(Cl)c5C)c34)C(=O)O)n2)c(C)cn1 (stereo not drawn) ?
Resp: 9.48e-10

Req: So what does the record say about IC50 for CC#Cc1sc2ncnc(OC(Cc3ccccc3OCc3ccnc(N4CCOCC4)n3)C(=O)O)c2c1-c1ccc(OCCN2CCN(C)CC2)c(Cl)c1C (stereo not drawn) ?
Resp: 4.3e-09

Req: So what does the record say about IC50 for COc1ccccc1CC(Oc1ncnc2sc(-c3ccc(C(=O)N(C)C)o3)c(-c3ccc(OCCN4CCN(C)CC4)c(Cl)c3C)c12)C(=O)O (stereo not drawn) ?
Resp: 8.4e-08

----------
Tested on: H929 multiple myeloma tumour line
Experiment: In vitro cytotoxicity, Microculture Tetrazolium Assay
Format: cell-based
Conditions: Homo sapiens, NCI-H929, 48 h, H929 cells, 48 hours exposure, MTT; read-out: IC50 (μM) MTT H929
measure: IC50 (µM)
Write the number in µM without appending the unit.

Req: So what does the record say about IC50 for COc1cc(-c2nccc(COc3ccccc3CC(Oc3ncnc4sc(-c5ccc(F)cc5)c(-c5ccc(OCCN6CCN(C)CC6)c(Cl)c5C)c34)C(=O)O)n2)ccn1 (stereo not drawn) [Example 735] ?
Resp: 0.007

Req: So what does the record say about IC50 for CCc1sc2ncnc(OC(Cc3ccccc3)C(=O)O)c2c1-c1ccc(OCCN2CCC(O)CC2)c(Cl)c1C (stereo not drawn) [Example 413] ?
Resp: 15.8

Req: So what does the record say about IC50 for Cc1cnccc1-c1nccc(COc2ccccc2CC(Oc2ncnc3sc(-c4ccc(F)cc4)c(-c4ccc(OCCN(C)C)c(Cl)c4C)c23)C(=O)O)n1 (stereo not drawn) [Example 137] ?
Resp: 0.007

Req: So what does the record say about IC50 for CC#Cc1sc2ncnc(OC(Cc3ccccc3OCC)C(=O)O)c2c1-c1ccc(OCCN2CCN(C)CC2)c(Cl)c1C (stereo not drawn) [Example 481] ?
Resp: 0.643

Req: So what does the record say about IC50 for COc1ccccc1-c1nccc(COc2ccccc2CC(Oc2ncnc3sc(-c4ccc(OCc5ccc(Cl)cc5)cc4)c(-c4ccc(OCCN5CCN(C)CC5)c(Cl)c4C)c23)C(=O)O)n1 (stereo not drawn) [Example 775] ?
Resp: 0.039

Req: So what does the record say about IC50 for COCOc1cc(F)ccc1CC(Oc1ncnc2sc(-c3ccc(F)o3)c(-c3ccc(OCCN4CCN(C)CC4)c(Cl)c3C)c12)C(=O)O (stereo not drawn) [Example 690] ?
Resp: 0.178

----------
System: H929 multiple myeloma tumour line
Assay: In vitro cytotoxicity, Microculture Tetrazolium Assay
Type: cell-based
Conditions: Homo sapiens, NCI-H929, 48 h, H929 cells, 48 hours exposure, MTT; read-out: IC50 (μM) MTT H929
For each entry below, report its IC50 value.
Provide a numeric answer, followed by its unit.

Req: So what does the record say about IC50 for COc1ccccc1CC(Oc1ncnc2sc(-c3cccc(Cl)c3F)c(-c3ccc(OCCN4CCN(C)CC4)c(Cl)c3C)c12)C(=O)O (stereo not drawn) [Example 559] ?
Resp: 0.293 µM

Req: So what does the record say about IC50 for CCOCCn1nccc1COc1ccccc1CC(Oc1ncnc2sc(-c3ccc(F)cc3)c(-c3ccc(OCCN(C)C)c(Cl)c3C)c12)C(=O)O (stereo not drawn) [Example 754] ?
Resp: 0.089 µM

Req: So what does the record say about IC50 for CCn1nccc1COc1ccccc1CC(Oc1ncnc2sc(-c3ccc(F)o3)c(-c3ccc(OCCN(C)C)c(Cl)c3C)c12)C(=O)O (stereo not drawn) [Example 204] ?
Resp: 0.034 µM

----------
System: H929 multiple myeloma tumour line
Test: In vitro cytotoxicity, Microculture Tetrazolium Assay
Type: cell-based
Details: Homo sapiens, NCI-H929, 48 h, H929 cells, 48 hours exposure, MTT; read-out: IC50 (μM) MTT H929
Experimental: The cytotoxicity studies were carried out on the H929 multiple myeloma tumour line. The cells are distributed onto microplates and exposed to the test compounds for 48 hours.
Records here are stratified by IC50; strata: group A: < 0.03 µM; group B: ≥ 0.03 µM and < 0.2 µM; group C: ≥ 0.2 µM

Req: Which band does Cc1c(-c2c(-c3ccc(F)cc3)sc3ncnc(OC(Cc4ccccc4OCc4ccnn4CC4CCCCC4)C(=O)O)c23)ccc(OCCN2CCN(C)CC2)c1Cl (centres unmarked) fall in?
Resp: group B

Req: Which band does COc1ccccc1CC(Oc1ncnc2sc(-c3ccco3)c(-c3ccc(OC4CCN(C)CC4)c(Cl)c3C)c12)C(=O)O (centres unmarked) fall in?
Resp: group C

Req: Which band does COCCOc1ccccc1-c1nccc(COc2ccccc2CC(Oc2ncnc3sc(-c4ccc(F)cc4)c(-c4ccc(OCCN(C)C)c(Cl)c4C)c23)C(=O)O)n1 (centres unmarked) fall in?
Resp: group A

Req: Which band does Cc1c(-c2c(-c3ccc(F)cc3)sc3ncnc(OC(Cc4ccccc4OCC(F)(F)F)C(=O)O)c23)ccc(OCC2CCCN2C)c1Cl (single isomer, unassigned) fall in?
Resp: group C

Req: Which band does Cc1c(-c2c(-c3ccc(F)cc3)sc3ncnc(OC(Cc4ccccc4OCc4ccnc(-c5ccccc5C(F)(F)F)n4)C(=O)O)c23)ccc(OCCN2CCN(C)CC2)c1Cl (centres unmarked) fall in?
Resp: group A

Req: Which band does Cc1c(-c2c(-c3ccco3)sc3ncnc(OC(Cc4ccccc4OC4CCN(C)C4)C(=O)O)c23)ccc(OCCN2CCN(C)CC2)c1Cl (centres unmarked) fall in?
Resp: group C

Req: Which band does Cc1c(-c2c(-c3ccco3)sc3ncnc(OC(Cc4ccccc4OCc4c5ccccc5nn4C)C(=O)O)c23)ccc(OCCN2CCN(C)CC2)c1Cl (centres unmarked) fall in?
Resp: group C

Req: Which band does Cc1c(-c2c(-c3ccc(F)cc3)sc3ncnc(OC(Cc4ccccc4OCc4ccnc(COc5ccccc5)n4)C(=O)O)c23)ccc(OCCN2CCN(C)CC2)c1Cl (centres unmarked) fall in?
Resp: group A

Req: Which band does Cc1c(-c2c(-c3ccc(F)cc3)sc3ncnc(OC(Cc4ccccc4OCc4ccnn4C(C)(C)C)C(=O)O)c23)ccc(OCCN(C)C)c1Cl (centres unmarked) fall in?
Resp: group B

Req: Which band does COc1cc(-c2sc3ncnc(OC(Cc4ccccc4OCc4ccnc(C(F)(F)F)n4)C(=O)O)c3c2-c2ccc(OCCN3CCN(C)CC3)c(Cl)c2C)ccc1F (centres unmarked) fall in?
Resp: group B

Req: Which band does Cc1c(-c2c(-c3ccc(F)cc3)sc3ncnc(OC(Cc4ccccc4OCCF)C(=O)O)c23)ccc(OCCN2CCN(C)CC2)c1Cl (centres unmarked) fall in?
Resp: group C

Req: Which band does Cc1cc(-c2nccc(COc3ccccc3CC(Oc3ncnc4sc(-c5ccc(F)cc5)c(-c5ccc(OCCN(C)C)c(Cl)c5C)c34)C(=O)O)n2)ccn1 (centres unmarked) fall in?
Resp: group A

Req: Which band does Cc1c(-c2c(-c3ccc(F)o3)sc3ncnc(OC(Cc4ccccc4OCc4ccnc(OCC(F)(F)F)n4)C(=O)O)c23)ccc(OCCN2CCN(C)CC2)c1Cl (centres unmarked) fall in?
Resp: group A

Req: Which band does COCCOc1cc(-c2sc3ncnc(OC(Cc4ccccc4OCc4ccnc(OC)n4)C(=O)O)c3c2-c2ccc(OCCN3CCN(C)CC3)c(Cl)c2C)ccc1F (centres unmarked) fall in?
Resp: group B

Req: Which band does Cc1c(-c2c(-c3ccc(F)o3)sc3ncnc(OC(Cc4ccccc4OCCO)C(=O)O)c23)ccc(OCCN2CCN(C)CC2)c1Cl (centres unmarked) fall in?
Resp: group B

Req: Which band does Cc1c(-c2c(-c3ccc(F)o3)sc3ncnc(OC(Cc4ccccc4OCC(=O)NCc4ccccc4)C(=O)O)c23)ccc(OCCN2CCN(C)CC2)c1Cl (centres unmarked) fall in?
Resp: group B

Req: Which band does Cc1c(-c2c(-c3ccc(F)cc3)sc3ncnc(OC(Cc4ccccc4OCc4ccnc(-c5ccc(Cl)nc5)n4)C(=O)O)c23)ccc(OCCN2CCN(C)CC2)c1Cl (centres unmarked) fall in?
Resp: group A

Req: Which band does CCn1nccc1COc1ccccc1CC(Oc1ncnc2sc(-c3cccc(F)c3F)c(-c3ccc(OCCN4CCN(C)CC4)c(Cl)c3C)c12)C(=O)O (centres unmarked) fall in?
Resp: group A

Req: Which band does COc1ccccc1CC(Oc1ncnc2sc(-c3cccc4occc34)c(-c3ccc(OCCN4CCN(C)CC4)c(Cl)c3C)c12)C(=O)O (centres unmarked) fall in?
Resp: group C

Req: Which band does Cc1c(-c2c(-c3ccco3)sc3ncnc(OC(Cc4ccccc4OCc4cc(-c5ccccc5)nn4C)C(=O)O)c23)ccc(OCCN2CCN(C)CC2)c1Cl (centres unmarked) fall in?
Resp: group B

Req: Which band does Cc1cc(COc2ccccc2CC(Oc2ncnc3sc(-c4ccc(F)o4)c(-c4ccc(OCCN5CCN(C)CC5)c(Cl)c4C)c23)C(=O)O)ncn1 (centres unmarked) fall in?
Resp: group B

Req: Which band does Cc1c(-c2c(-c3ccco3)sc3ncnc(OC(Cc4ccccc4OCCOc4ccccc4)C(=O)O)c23)ccc(OCCN2CCN(C)CC2)c1Cl (centres unmarked) fall in?
Resp: group C

Req: Which band does Cc1c(-c2c(-c3ccc(F)cc3)sc3ncnc(OC(Cc4ccccc4OCc4cccc(N5CCOCC5)n4)C(=O)O)c23)ccc(OCCN2CCN(C)CC2)c1Cl (centres unmarked) fall in?
Resp: group B
